- Test system: Mus musculus
- experiment-description: Anticonvulsant activity in Swiss mouse assessed as protection against seizures at 300 mg/kg, ip administered 120 mins before test by maximal electroshock seizure test
- Assay type: functional
- measurement-context: route intraperitoneal
# strict inequality: Activity < 10% yields met, everything else yields not met

Examples with answers:
[
  {
    "smiles-text": "CCCCCCCCn1c(Cc2cccc(Cl)c2)n[nH]c1=S",
    "cat": "not met"
  },
  {
    "smiles-text": "CCCCCCCCCn1c(Cc2cccc(Cl)c2)n[nH]c1=S",
    "cat": "not met"
  },
  {
    "smiles-text": "CCn1c(-c2cccc(Cl)c2Cl)n[nH]c1=S",
    "cat": "met"
  },
  {
    "smiles-text": "CCCCCn1c(-c2cccc(Cl)c2Cl)n[nH]c1=S",
    "cat": "not met"
  },
  {
    "smiles-text": "CCCCCCn1c(-c2cccc(Cl)c2Cl)n[nH]c1=S",
    "cat": "not met"
  },
  {
    "smiles-text": "CCCCCCCCCCCCn1c(Cc2cccc(Cl)c2)n[nH]c1=S",
    "cat": "met"
  },
  {
    "smiles-text": "CCCCn1c(Cc2cccc(Cl)c2)n[nH]c1=S",
    "cat": "not met"
  },
  {
    "smiles-text": "CCCCCCCn1c(-c2cccc(Cl)c2Cl)n[nH]c1=S",
    "cat": "not met"
  }
]

query: Given the entry CCn1c(Cc2cccc(Cl)c2)n[nH]c1=S , would its reported Activity be below 10%?
result: not met

query: Given the entry CCCCn1c(-c2cccc(Cl)c2Cl)n[nH]c1=S , would its reported Activity be below 10%?
result: met

query: Given the entry CCCCCCCn1c(Cc2cccc(Cl)c2)n[nH]c1=S , would its reported Activity be below 10%?
result: not met

query: Given the entry CCCCCCCCCCn1c(Cc2cccc(Cl)c2)n[nH]c1=S , would its reported Activity be below 10%?
result: met

query: Given the entry CCCCCCn1c(Cc2cccc(Cl)c2)n[nH]c1=S , would its reported Activity be below 10%?
result: not met

query: Given the entry CCCCCn1c(Cc2cccc(Cl)c2)n[nH]c1=S , would its reported Activity be below 10%?
result: not met
